# System: Vero E6 infected with SARS-CoV-2
# procedure details: inhibition of SARS-CoV-2 cytopathic effect; higher = more antiviral protection, active = above 15
# stated conditions: 833.33 nM; 48 h
Exercise: state measured inhibition of SARS-CoV-2 cytopathic effect for each of the molecules provided.
Note: unit % is implicit; provide only the numeric part.

Reported Vero E6 infected with SARS-CoV-2 inhibition of SARS-CoV-2 cytopathic effect for item `O=C(NC1CCN(CCc2c[nH]c3ccccc23)CC1)c1ccccc1` was -1.28

Reported Vero E6 infected with SARS-CoV-2 inhibition of SARS-CoV-2 cytopathic effect for item COc1ccc(OC)c(C(O)C(C)N)c1 (configuration not stated) was 3.81

Reported Vero E6 infected with SARS-CoV-2 inhibition of SARS-CoV-2 cytopathic effect for item CCC(=O)O[C@]1(C(=O)CCl)[C@@H](C)C[C@H]2[C@@H]3C[C@H](F)C4=CC(=O)C=C[C@]4(C)[C@@]3(F)[C@@H](O)C[C@@]21C [halobetasol-propionate] was 1.32

Reported Vero E6 infected with SARS-CoV-2 inhibition of SARS-CoV-2 cytopathic effect for item NC[C@H]1O[C@H](O[C@H]2[C@H](O[C@@H]3O[C@H](CO)[C@@H](O)[C@H]3O)[C@@H](O)[C@H](N)C[C@@H]2N)[C@H](N)[C@@H](O)[C@@H]1O [ribostamycin-sulfate] was -1.25

Reported Vero E6 infected with SARS-CoV-2 inhibition of SARS-CoV-2 cytopathic effect for item `CC(C)(C)NC[C@H](O)c1ccc(O)cc1Cl` was -2.53

Reported Vero E6 infected with SARS-CoV-2 inhibition of SARS-CoV-2 cytopathic effect for item `CN1C/C=C/CCOc2cccc(c2)-c2ccnc(n2)Nc2cccc(c2)C1` was -10.7

Reported Vero E6 infected with SARS-CoV-2 inhibition of SARS-CoV-2 cytopathic effect for item `Cc1c(N(C)C)c(=O)n(-c2ccccc2)n1C` was -13.2

Reported Vero E6 infected with SARS-CoV-2 inhibition of SARS-CoV-2 cytopathic effect for item `O=C(N[C@H]1CN2CCC1CC2)c1ccc2c(c1)OCCO2` was -0.26

Reported Vero E6 infected with SARS-CoV-2 inhibition of SARS-CoV-2 cytopathic effect for item N=C(N)c1ccc(/N=N/Nc2ccc(C(=N)N)cc2)cc1 [diminazene-aceturate] was -14

Reported Vero E6 infected with SARS-CoV-2 inhibition of SARS-CoV-2 cytopathic effect for item `Cc1cc(C)c(CNC(=O)c2cc(-c3ccc(N4CCN(C)CC4)nc3)cc3c2c(C)cn3C(C)C)c(=O)[nH]1` was -2.29

Reported Vero E6 infected with SARS-CoV-2 inhibition of SARS-CoV-2 cytopathic effect for item C[C@H](CCC(=O)O)[C@H]1CC[C@H]2[C@@H]3C(=O)C[C@@H]4CC(=O)CC[C@]4(C)[C@H]3CC(=O)[C@]12C [dehydrocholate-acid] was -2.84

Reported Vero E6 infected with SARS-CoV-2 inhibition of SARS-CoV-2 cytopathic effect for item `COc1ccccc1N1CCN(CCN2C(=O)CC3(CCCC3)CC2=O)CC1` was 1.51

Reported Vero E6 infected with SARS-CoV-2 inhibition of SARS-CoV-2 cytopathic effect for item `NCCCC[C@H](NC(=O)[C@@H]1CCCN1C(=O)[C@@H]1CSSC[C@H](NC(=O)CNC(=O)CNC(=O)CN)C(=O)N[C@@H](Cc2ccc(O)cc2)C(=O)N[C@@H](Cc2ccccc2)C(=O)N[C@@H](CCC(N)=O)C(=O)N[C@@H](CC(N)=O)C(=O)N1)C(=O)NCC(N)=O` was -0.07

Reported Vero E6 infected with SARS-CoV-2 inhibition of SARS-CoV-2 cytopathic effect for item `C[C@H](Oc1ccc(S(C)(=O)=O)cc1C(=O)N1CCN(c2ncc(C(F)(F)F)cc2F)CC1)C(F)(F)F` was 0.34

Reported Vero E6 infected with SARS-CoV-2 inhibition of SARS-CoV-2 cytopathic effect for item `c1ccc(-c2ccc(CNc3nc(-c4ccccn4)nnc3-c3ccccc3)cc2)cc1` was -4.89

Reported Vero E6 infected with SARS-CoV-2 inhibition of SARS-CoV-2 cytopathic effect for item OCc1cccnc1 [nicotinyl-alcohol-tartrate] was 0.73

Reported Vero E6 infected with SARS-CoV-2 inhibition of SARS-CoV-2 cytopathic effect for item CC(C)(C)NCC(O)COc1ccc(NC(=O)NC2CCCCC2)cc1 (configuration not stated) was 0.83

Reported Vero E6 infected with SARS-CoV-2 inhibition of SARS-CoV-2 cytopathic effect for item `CC1(C)S[C@@H]2[C@H](NC(=O)COc3ccccc3)C(=O)N2[C@H]1C(=O)O` was 1.76

Reported Vero E6 infected with SARS-CoV-2 inhibition of SARS-CoV-2 cytopathic effect for item CCOc1ccc2nc3cc(N)ccc3c(N)c2c1 [ethacridine-lactate-monohydrate] was -1.28

Reported Vero E6 infected with SARS-CoV-2 inhibition of SARS-CoV-2 cytopathic effect for item `CC[C@@H](CO)NC(=O)[C@@H]1C=C2c3cccc4[nH]cc(c34)C[C@H]2N(C)C1` was 0.13

Reported Vero E6 infected with SARS-CoV-2 inhibition of SARS-CoV-2 cytopathic effect for item `CS(=O)(=O)c1ccc([C@@H](CC2CCCC2)C(=O)Nc2nccs2)cc1` was 1.71

Reported Vero E6 infected with SARS-CoV-2 inhibition of SARS-CoV-2 cytopathic effect for item `CC1(C)CCC2=C(O1)c1ccccc1C(=O)C2=O` was -1.46

Reported Vero E6 infected with SARS-CoV-2 inhibition of SARS-CoV-2 cytopathic effect for item `Oc1ccc2c3c1O[C@H]1[C@@H](O)CC[C@@]4(O)[C@@H](C2)N(CC2CCC2)CC[C@]314` was 0.68

Reported Vero E6 infected with SARS-CoV-2 inhibition of SARS-CoV-2 cytopathic effect for item `COc1ccc(/C=C\c2cc(OC)c(OC)c(OC)c2)cc1OP(=O)(O)O` was -0.84

Reported Vero E6 infected with SARS-CoV-2 inhibition of SARS-CoV-2 cytopathic effect for item `C[C@]12CC[C@H]3[C@@H](CC[C@]4(O)C[C@@H](O)CC[C@]34C=O)[C@@]1(O)CC[C@@H]2C1=CC(=O)OC1` was -12.1

Reported Vero E6 infected with SARS-CoV-2 inhibition of SARS-CoV-2 cytopathic effect for item `COc1cc(OC)cc(-c2ccc3c(-c4ccc(F)cc4)n[nH]c3n2)c1` was 1.46

Reported Vero E6 infected with SARS-CoV-2 inhibition of SARS-CoV-2 cytopathic effect for item `O=C(O)c1cccc(-c2noc(-c3ccccc3F)n2)c1` was 2.99

Reported Vero E6 infected with SARS-CoV-2 inhibition of SARS-CoV-2 cytopathic effect for item `C[C@H]1O[C@@H](O[C@H]2[C@@H](O)C[C@H](O[C@H]3[C@@H](O)C[C@H](O[C@H]4CC[C@@]5(C)[C@H](CC[C@@H]6[C@@H]5C[C@@H](O)[C@]5(C)[C@@H](C7=CC(=O)OC7)CC[C@]65O)C4)O[C@@H]3C)O[C@@H]2C)C[C@H](O)[C@@H]1O` was -13.3

Reported Vero E6 infected with SARS-CoV-2 inhibition of SARS-CoV-2 cytopathic effect for item CCOC(=O)CC(=O)N1CCSC1COc1ccccc1OC (configuration not stated) was -0.38

Reported Vero E6 infected with SARS-CoV-2 inhibition of SARS-CoV-2 cytopathic effect for item `c1ccc2[nH]c(-c3cscn3)nc2c1` was 0.7

Reported Vero E6 infected with SARS-CoV-2 inhibition of SARS-CoV-2 cytopathic effect for item C/C(O)=C(\C#N)C(=O)Nc1ccc(C(F)(F)F)cc1 [teriflunomide] was -3.04

Reported Vero E6 infected with SARS-CoV-2 inhibition of SARS-CoV-2 cytopathic effect for item `CCCn1c(=O)c(C)cn2nc(N)nc12` was 2.28
